Molecular target: human GPR119 (Homo sapiens, UniProt Q8TDV5)
Construct: expression vector for human GPR119 cDNA (Acc. No. NP_848566)
Assay: AlphaScreen cAMP assay, activation of GPR119 in Min-6/hGPR119 cells
Conditions: MIN6 cells stably transfected with human GPR119; intracellular cAMP; 45 minutes incubation at room temperature
EC50 under 60 nM gets Fulfilled, anything at or over 60 nM gets Not fulfilled.

> print(dat)
                                   molecule                         target.under.test  class.assignment
1  CC1(c2nc(N3CCC([C@@H]4Cc5cc(C6=CCN(S(C)(=O)=O)CC6)ncc5O4)CC3)no2)CC1 (single isomer, unassigned)  human GPR119 (Homo sapiens, UniProt Q8TDV5)         Fulfilled
2  CC(C)c1noc(N2CCC([C@]3(C)Cc4cc(-c5ccc(S(C)(=O)=O)cc5)ncc4O3)CC2)n1 (single isomer, unassigned)  human GPR119 (Homo sapiens, UniProt Q8TDV5)         Fulfilled
3  CCCc1nc(N2CCC(C3Cc4cc(-c5ccc(S(C)(=O)=O)cc5)ncc4O3)CC2)no1 (centres unmarked)  human GPR119 (Homo sapiens, UniProt Q8TDV5)         Fulfilled
4  CCc1cnc(N2CCC(C3Cc4cc(-c5ccc(C(=O)NCC(C)(C)CO)cc5)ccc4O3)CC2)nc1 (centres unmarked)  human GPR119 (Homo sapiens, UniProt Q8TDV5)     Not fulfilled
5  CCc1cnc(N2CCC(C3Cc4cc(C5=CCN(S(C)(=O)=O)CC5)ncc4O3)CC2)nc1 (centres unmarked)  human GPR119 (Homo sapiens, UniProt Q8TDV5)         Fulfilled
6  CCc1cnc(N2CCC([C@]3(C)Cc4cc(C5=CCN(S(C)(=O)=O)CC5)ncc4O3)CC2)nc1 (single isomer, unassigned)  human GPR119 (Homo sapiens, UniProt Q8TDV5)         Fulfilled
7  C[C@@]1(C2CCN(c3cnc(C(F)(F)F)cn3)CC2)Cc2cc(C3=CCN(S(C)(=O)=O)CC3)ncc2O1 (single isomer, unassigned)  human GPR119 (Homo sapiens, UniProt Q8TDV5)         Fulfilled
8  CCc1cnc(N2CCC(C3Cc4cc(-c5ccc(C(=O)NCCC(C)O)cc5)ccc4O3)CC2)nc1 (centres unmarked)  human GPR119 (Homo sapiens, UniProt Q8TDV5)     Not fulfilled
9  Cc1cnc(N2CCC([C@H]3Cc4cc(C5=CCN(S(C)(=O)=O)CC5)ncc4O3)CC2)nc1 (single isomer, unassigned)  human GPR119 (Homo sapiens, UniProt Q8TDV5)         Fulfilled

----------
Molecular target: human GPR119 (Homo sapiens, UniProt Q8TDV5)
Construct: expression vector for human GPR119 cDNA (Acc. No. NP_848566); expressed in transfected cells
Sequence (Q8TDV5 1-335): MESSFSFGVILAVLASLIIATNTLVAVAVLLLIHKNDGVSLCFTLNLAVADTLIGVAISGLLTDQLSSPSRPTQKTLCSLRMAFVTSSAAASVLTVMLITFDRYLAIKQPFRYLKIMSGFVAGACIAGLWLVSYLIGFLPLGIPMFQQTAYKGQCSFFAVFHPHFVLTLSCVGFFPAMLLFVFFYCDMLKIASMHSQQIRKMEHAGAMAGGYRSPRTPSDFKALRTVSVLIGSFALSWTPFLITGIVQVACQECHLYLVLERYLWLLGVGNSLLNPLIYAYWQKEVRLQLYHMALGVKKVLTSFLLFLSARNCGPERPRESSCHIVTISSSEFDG
Experiment: AlphaScreen cAMP assay, activation of GPR119 in Min-6/hGPR119 cells
Format: cell-based
Settings: MIN6 cells stably transfected with human GPR119; intracellular cAMP; 45 minutes incubation at room temperature
pEC50: −log10 of the molar value.
Threshold rule: pEC50 greater than or equal to 8 is YES; below that, NO.

> print(dat)
                                    molecule  class.assignment
 1  CCc1cnc(N2CCC(C3Cc4cc(-c5ccc(C(=O)NCC#N)cc5)ccc4O3)CC2)nc1 (stereo not drawn)                NO
 2  CCc1cnc(N2CCC(C3Cc4cc(-c5ccc(C(=O)NCC6COCCO6)cc5)ccc4O3)CC2)nc1 (stereo not drawn)                NO
 3  CCc1cnc(N2CCC(C3Cc4cc(-c5ccc(C(=O)N(C)CCO)cc5)ccc4O3)CC2)nc1 (stereo not drawn)                NO
 4  CS(=O)(=O)N1CC=C(c2cc3c(cn2)O[C@@H](C2CCN(c4cnc(C(F)(F)F)cn4)CC2)C3)CC1 (single isomer, unassigned)               YES
 5  CCc1cnc(N2CCC(C3Cc4cc(-c5ccc(S(C)(=O)=O)cc5)ccc4O3)CC2)nc1 (stereo not drawn)                NO
 6  CCc1cnc(N2CCC(C3Cc4cc(-c5ccc(CS(C)(=O)=O)cc5)ncc4O3)CC2)nc1 (stereo not drawn)                NO
 7  CC(C)c1nc(N2CCC(C3Cc4cc(-c5ccc(CS(C)(=O)=O)cc5F)ncc4O3)CC2)no1 (stereo not drawn)                NO
 8  CCCc1noc(N2CCC(C3Cc4cc(-c5ccc(S(C)(=O)=O)cc5)ccc4O3)CC2)n1 (stereo not drawn)                NO
 9  CCc1cnc(N2CCC([C@@H]3Cc4cc(C5=CCN(S(C)(=O)=O)CC5)ncc4O3)CC2)nc1 (single isomer, unassigned)               YES
10  CCCc1nc(N2CCC(C3Cc4cc(-c5ccc(CS(C)(=O)=O)cc5)ncc4O3)CC2)no1 (stereo not drawn)                NO
11  CS(=O)(=O)N1CC=C(c2cc3c(cn2)O[C@H](C2CCN(c4ncc(C(F)(F)F)cn4)CC2)C3)CC1 (single isomer, unassigned)                NO
12  CCc1cnc(N2CCC(C3Cc4cc(-c5ccc(C(=O)N6CCC(O)C6)cc5)ccc4O3)CC2)nc1 (stereo not drawn)                NO
13  CCCc1nc(N2CCC([C@@H]3Cc4cc(C5=CCN(S(C)(=O)=O)CC5)ncc4O3)CC2)no1 (single isomer, unassigned)                NO
14  C[C@@]1(C2CCN(c3ncc(C(F)(F)F)cn3)CC2)Cc2cc(C3=CCN(S(C)(=O)=O)CC3)ncc2O1 (single isomer, unassigned)               YES
15  CS(=O)(=O)c1ccc(-c2ccc3c(c2)CC(C2CCN(c4nc(C5CC5)no4)CC2)O3)cc1 (stereo not drawn)                NO
16  C[C@]1(C2CCN(c3ncc(Cl)cn3)CC2)Cc2cc(C3=CCN(S(C)(=O)=O)CC3)ncc2O1 (single isomer, unassigned)                NO
17  CS(=O)(=O)c1ccc(-c2cc3c(cn2)OC(C2CCN(c4nc(C(F)(F)F)no4)CC2)C3)cc1 (stereo not drawn)                NO
